System: JAK1-dependent STAT6 phosphorylation downstream of IL-13 stimulation in TF-1 human erythroleukemia cells
Test: cells
Conditions: TF-1, read-out: IL-13-pSTAT6 IC50
pIC50: −log10 of the molar value.
property measured: pIC50

Known pIC50 results, listed for orientation:
O=C(NCCN1CCOCC1)c1ccc(Nc2nc3c(C4=CCN(C(=O)CCC(F)(F)F)CC4)cccn3n2)cc1    8.03
CN(C)CCN1CCN(C(=O)c2ccc(Nc3nc4c(C5=CCN(C(=O)CCC(F)(F)F)CC5)cccn4n3)cc2)CC1    7.47
CCOC(=O)N1CC=C(c2cccn3nc(Nc4ccc(C(=O)N5CCC(c6ccccn6)CC5)cc4)nc23)CC1    7.38
CC(C)N1CCC(CN(C)C(=O)c2ccc(Nc3nc4c(N5CCC(O)(c6ccc(Cl)cc6)CC5)cccn4n3)cc2)C1 (stereo not drawn)    7.42
CN1CCC(N(C)C(=O)c2ccc(Nc3nc4c(N5CCC(CC(N)=O)(c6ccc(Cl)cc6)CC5)cccn4n3)cc2)CC1    6.90

[a] CN1CCC(N(C)C(=O)c2ccc(Nc3nc4c(C5=CCN(C(=O)NCc6ccccc6)CC5)cccn4n3)cc2)CC1
[b] O=C(CCC(F)(F)F)N1CC=C(c2cccn3nc(Nc4ccc(C(=O)N5Cc6cccnc6C5)cc4)nc23)CC1
Ask: Which numeric pIC50 is bigger, that of a or that of b ? Output the label that corresponds to your choice.
Result: b
(b: 8.19, a: 6.33)
